- Target Or Test System: HIV-integrase (Human immunodeficiency virus type 1 group M subtype B, UniProt P12497)
- Construct: Recombinant integrase (0.26 ng) was incubated with the beads
- Assay Explanation: HIV-Integrase Inhibition Activity (SPA bead strand transfer assay)
- Condition Description: recombinant integrase, in vitro
Exercise: state measured IC50 for each of the molecules provided.

Look up and report IC50, with HIV-integrase (Human immunodeficiency virus type 1 group M subtype B, UniProt P12497) as system, for Cc1cc(CNC(=O)c2nc3n(c(=O)c2O)CCC(=O)N3)ccc1F
4 to 15 nM

Look up and report IC50, with HIV-integrase (Human immunodeficiency virus type 1 group M subtype B, UniProt P12497) as system, for CNC(=O)c1cc(F)ccc1CNC(=O)c1nc2n(c(=O)c1O)CCS2
16 to 49000 nM

Look up and report IC50, with HIV-integrase (Human immunodeficiency virus type 1 group M subtype B, UniProt P12497) as system, for CNC(=O)c1cc(F)ccc1CNC(=O)c1nc2n(c(=O)c1O)CC(=O)N2Cc1ccccc1
16 to 49000 nM

Look up and report IC50, with HIV-integrase (Human immunodeficiency virus type 1 group M subtype B, UniProt P12497) as system, for CN1C(=O)CCn2c1nc(C(=O)NCc1ccc(Cl)c(Cl)c1)c(O)c2=O
4 to 15 nM

Look up and report IC50, with HIV-integrase (Human immunodeficiency virus type 1 group M subtype B, UniProt P12497) as system, for CN1C(=O)CCn2c1nc(C(=O)NCc1ccc(F)c(Cl)c1)c(O)c2=O
4 to 15 nM

Look up and report IC50, with HIV-integrase (Human immunodeficiency virus type 1 group M subtype B, UniProt P12497) as system, for CN1Nc2nc(C(=O)NCc3ccc(Cl)c(Cl)c3)c(O)c(=O)n2CC1=O
4 to 15 nM

Look up and report IC50, with HIV-integrase (Human immunodeficiency virus type 1 group M subtype B, UniProt P12497) as system, for Cc1ccc(CNC(=O)c2nc3n(c(=O)c2O)CCS3)cc1C
16 to 49000 nM

Look up and report IC50, with HIV-integrase (Human immunodeficiency virus type 1 group M subtype B, UniProt P12497) as system, for CNC(=O)c1cc(F)ccc1CNC(=O)c1nc2n(c(=O)c1O)CCC(=O)N2C
4 to 15 nM

Look up and report IC50, with HIV-integrase (Human immunodeficiency virus type 1 group M subtype B, UniProt P12497) as system, for O=C1Cn2c(nc(C(=O)NCc3ccc(Cl)c(Cl)c3)c(O)c2=O)N1
4 to 15 nM

====

- Target Or Test System: HIV-integrase (Human immunodeficiency virus type 1 group M subtype B)
- Construct: Recombinant integrase (0.26 ng) was incubated with the beads
- Assay Explanation: HIV-Integrase Inhibition Activity (SPA bead strand transfer assay)
- Condition Description: recombinant integrase, in vitro
pIC50: −log10 of the molar value.
Exercise: state measured pIC50 for each of the molecules provided.

Give reported pIC50 value for CN1C(=O)CCn2c1nc(C(=O)NCc1ccc(F)cc1)c(O)c2=O
4.31 to 7.80

Give reported pIC50 value for O=C(NCc1ccc(F)cc1)c1nc2n(c(=O)c1O)CC(=O)N1CCCCN21
4.31 to 7.80

Give reported pIC50 value for Cc1cc(CNC(=O)c2nc3n(c(=O)c2O)CC(=O)N2CCCN32)ccc1F
7.82 to 8.40

Give reported pIC50 value for Cc1cc(CNC(=O)c2nc3n(c(=O)c2O)CC(=O)N3C)ccc1F
7.82 to 8.40

Give reported pIC50 value for CN1C(=O)Cn2c1nc(C(=O)NCc1ccc(F)cc1)c(O)c2=O
≤ 7.30

====

Measured Attribute: melting point

Give reported melting point value for O=C1CCn2c(nc(C(=O)NCc3ccc(F)cc3)c(O)c2=O)N1
> 300 °C (dec.)

Give reported melting point value for O=C1CCn2c(nc(C(=O)NCc3ccc(Cl)c(Cl)c3)c(O)c2=O)N1
> 300 °C (dec.)

Give reported melting point value for Cc1cc(CNC(=O)c2nc3n(c(=O)c2O)CCC(=O)N3)ccc1F
> 300 °C

Give reported melting point value for O=C1Cn2c(nc(C(=O)NCc3ccc(F)c(Cl)c3)c(O)c2=O)N1
295 °C (dec.)

Give reported melting point value for CN1C(=O)CCn2c1nc(C(=O)NCc1ccc(Cl)c(Cl)c1)c(O)c2=O
198 to 201 °C

Give reported melting point value for Cc1ccc(CNC(=O)c2nc3n(c(=O)c2O)CC(=O)N3)cc1C
287 °C (dec.)

Give reported melting point value for Cc1cc(CNC(=O)c2nc3n(c(=O)c2O)CCC(=O)N3C)ccc1F
216 °C

====

Exercise: state measured melting point for each of the compounds provided.
Report the value in °C with no unit label.

Give reported melting point value for CN1C(=O)CCn2c1nc(C(=O)NCc1ccc(F)c(Cl)c1)c(O)c2=O [Example 21]
201

Give reported melting point value for Cc1ccc(CNC(=O)c2nc3n(c(=O)c2O)CCC(=O)N3C)cc1C [Example 22]
181

====

- Target Or Test System: HIV-integrase (Human immunodeficiency virus type 1 group M subtype B)
- Construct: Recombinant integrase (0.26 ng) was incubated with the beads
- Assay Explanation: HIV-Integrase Inhibition Activity (SPA bead strand transfer assay)
- Condition Description: recombinant integrase, in vitro
pIC50: −log10 of the molar value.
Exercise: state measured pIC50 for each of the molecules provided.

Give reported pIC50 value for O=C(NCc1ccc(F)cc1)c1nc2n(c(=O)c1O)CC(=O)N1CCC[C@@H]21
≤ 7.30

Give reported pIC50 value for O=C1CCn2c(nc(C(=O)NCc3ccc(Cl)c(Cl)c3)c(O)c2=O)N1
7.82 to 8.40

Give reported pIC50 value for O=C(NCc1ccc(F)cc1)c1nc2n(c(=O)c1O)CCS(=O)(=O)N2
≤ 7.30

Give reported pIC50 value for CN1C(=O)Cn2c(nc(C(=O)NCc3ccc(Cl)c(Cl)c3)c(O)c2=O)N1C
4.31 to 7.80

Give reported pIC50 value for Cc1cc(CNC(=O)c2nc3n(c(=O)c2O)CCS3)ccc1F
7.82 to 8.40

Give reported pIC50 value for CN1Nc2nc(C(=O)NCc3ccc(F)cc3)c(O)c(=O)n2CC1=O
≤ 7.30

Give reported pIC50 value for Cc1cc(CNC(=O)c2nc3n(c(=O)c2O)CCC(=O)N3C)ccc1F
7.82 to 8.40

Give reported pIC50 value for CNC(=O)c1cc(F)ccc1CNC(=O)c1nc2n(c(=O)c1O)CC(=O)N2C
≤ 7.30

Give reported pIC50 value for O=C1Cn2c(nc(C(=O)NCc3ccc(F)cc3)c(O)c2=O)N1
≤ 7.30

====

- Target Or Test System: HIV-integrase (Human immunodeficiency virus type 1 group M subtype B)
- Construct: Recombinant integrase (0.26 ng) was incubated with the beads
- Assay Explanation: HIV-Integrase Inhibition Activity (SPA bead strand transfer assay)
- Condition Description: recombinant integrase, in vitro
Exercise: state measured IC50 for each of the molecules provided.

Give reported IC50 value for CC1(C)NC(=O)Cn2c1nc(C(=O)NCc1ccc(F)cc1)c(O)c2=O [Example 45]
16 to 49000 nM

Give reported IC50 value for CN1C(=O)Cn2c(nc(C(=O)NCc3ccc(F)c(Cl)c3)c(O)c2=O)N1C [Example 28]
16 to 49000 nM

Give reported IC50 value for CN1C(=O)Cn2c(nc(C(=O)NCc3ccc(F)cc3)c(O)c2=O)N1C [Example 25]
16 to 49000 nM

Give reported IC50 value for Cc1cc(CNC(=O)c2nc3n(c(=O)c2O)CC(=O)N2CCCCN32)ccc1F [Example 32]
4 to 15 nM

Give reported IC50 value for Cc1cc(CNC(=O)c2nc3n(c(=O)c2O)CC(=O)N(C)N3)ccc1F [Example 30]
≥ 50 nM

Give reported IC50 value for O=C(NCc1ccc(F)cc1)c1nc2n(c(=O)c1O)CC(=O)N1CCCN21 [Example 34]
16 to 49000 nM

Give reported IC50 value for O=C1CCn2c(nc(C(=O)NCc3ccc(F)cc3)c(O)c2=O)N1 [Example 6]
16 to 49000 nM

Give reported IC50 value for CN1Cc2nc(C(=O)NCc3ccc(F)cc3)c(O)c(=O)n2CC1=O [Example 44]
≥ 50 nM

Give reported IC50 value for Cc1cc(CNC(=O)c2nc3n(c(=O)c2O)CC(=O)N3)ccc1F [Example 3]
16 to 49000 nM

====

- Target Or Test System: HIV-integrase (Human immunodeficiency virus type 1 group M subtype B)
- Construct: Recombinant integrase (0.26 ng) was incubated with the beads
- Assay Explanation: HIV-Integrase Inhibition Activity (SPA bead strand transfer assay)
- Condition Description: recombinant integrase, in vitro
Measured Attribute: IC50

Give reported IC50 value for CN1C(=O)Cn2c1nc(C(=O)NCc1ccc(Cl)c(Cl)c1)c(O)c2=O [Example 10]
4 to 15 nM

Give reported IC50 value for CC1(C)Cn2c(nc(C(=O)NCc3ccc(F)cc3)c(O)c2=O)S1 [Example 41]
≥ 50 nM

Give reported IC50 value for CN1C(=O)Cn2c1nc(C(=O)NCc1ccc(F)c(Cl)c1)c(O)c2=O [Example 12]
16 to 49000 nM

Give reported IC50 value for O=C1Cn2c(nc(C(=O)NCc3ccc(F)c(Cl)c3)c(O)c2=O)N1 [Example 4]
16 to 49000 nM

Give reported IC50 value for CNC(=O)c1cc(F)ccc1CNC(=O)c1nc2n(c(=O)c1O)CC(C)(C)S2 [Example 42]
≥ 50 nM

Give reported IC50 value for Cc1ccc(CNC(=O)c2nc3n(c(=O)c2O)CC(=O)N3)cc1C [Example 5]
16 to 49000 nM

Give reported IC50 value for Cc1cc(CNC(=O)c2nc3n(c(=O)c2O)CC(=O)N3Cc2ccccc2)ccc1F [Example 15]
16 to 49000 nM

Give reported IC50 value for O=C(NCc1ccc(F)cc1)c1nc2n(c(=O)c1O)CC(=O)N2Cc1ccccc1 [Example 14]
16 to 49000 nM

Give reported IC50 value for O=C1Cn2c(nc(C(=O)NCc3ccc(F)cc3)c(O)c2=O)CN1 [Example 43]
≥ 50 nM
